# procedure.text: Water solubility of PF1022 substance (elution into buffer, HPLC)
# Format: physicochemical
# reported.conditions: aqueous buffer; Clark Lubs buffer (pH 2.0), 1 hr, 40 °C, 50 mg PF1022 substance in 50 ml; read-out: Concentration of PF1022 substance
measurement.kind: solubility at 1 h

// query solubility at 1 h value for entry CC(C)CC1C(=O)OC(Cc2ccccc2)C(=O)N(C)C(CC(C)C)C(=O)OC(C)C(=O)N(C)C(CC(C)C)C(=O)OC(Cc2ccccc2)C(=O)N(C)C(CC(C)C)C(=O)OC(C)C(=O)N1C (stereo not shown)
< 1 µg/mL

###

# procedure.text: Water solubility of PF1022 substance (elution into buffer, HPLC)
# Type: physicochemical
# reported.conditions: aqueous buffer; McDougall buffer (pH 6.8), 1 hr, 40 °C, 50 mg PF1022 substance in 50 ml; read-out: Concentration of PF1022 substance
measurement.kind: solubility at 1 h

// query solubility at 1 h value for entry CC(C)CC1C(=O)OC(Cc2ccccc2)C(=O)N(C)C(CC(C)C)C(=O)OC(C)C(=O)N(C)C(CC(C)C)C(=O)OC(Cc2ccccc2)C(=O)N(C)C(CC(C)C)C(=O)OC(C)C(=O)N1C (stereo not shown)
< 1 µg/mL
